// data source = paper PMC2756588

Molecular target: T1, Bzz1-1, P38822
T1 sequence (P38822 478-572, looked up): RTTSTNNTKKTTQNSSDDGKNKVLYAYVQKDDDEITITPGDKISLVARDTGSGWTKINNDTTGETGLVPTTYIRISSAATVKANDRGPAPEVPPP
Assay: SPOT array
Conditions: median of control spots 4446
measured_metric: SPOT intensity
Answer with a number only.

Below, 5 binders whose answers are already recorded.
NAGIRPKFILALNDE ... 2
GKLKHIPRRPYEIER ... 0
QRIRKIPGIPLMSVG ... 0
TSIEIPKRSPLRFTS ... 0
GTIARPLFLVVLFFI ... 0

Data request, read-out SPOT intensity, for LFMKGTPEFPKSGFS 0

Data request, read-out SPOT intensity, for KRRAPPPVPKKPSSR 1320
